Below, each entry is listed alongside its reported log10 MIC.
- Test system: Staphylococcus aureus
- protocol-description: In vitro antibacterial activity against the methicillin-resistant Staphylococcus aureus 88
- Format: functional
outcome-measure: log10 MIC (log10 of the value in µg/mL)

- smiles-string: "CC(=O)NC[C@H]1CN(c2ccc(N3CCN(C(=O)c4cc(COC(=O)N(C)C)no4)CC3)c(F)c2)C(=O)O1"
  system-under-test: "Staphylococcus aureus"
  value: 0.49
- smiles-string: "COc1cccc(-c2cc(CN3CCN(c4ccc(N5C[C@H](CNC(C)=O)OC5=O)cc4F)CC3)on2)c1"
  system-under-test: "Staphylococcus aureus"
  value: 0.49
- smiles-string: "CC(=O)NC[C@H]1CN(c2ccc(N3CCN(Cc4cc(-c5ccc(Oc6ccccc6)cc5)no4)CC3)c(F)c2)C(=O)O1"
  system-under-test: "Staphylococcus aureus"
  value: 2.00
- smiles-string: "CC(=O)NC[C@H]1CN(c2ccc(N3CCN(C(=O)c4cc(C(=O)N(C)C)no4)CC3)c(F)c2)C(=O)O1"
  system-under-test: "Staphylococcus aureus"
  value: 0.49
- smiles-string: "CC(=O)NC[C@H]1CN(c2ccc(N3CCN(C(=O)c4nccs4)CC3)c(F)c2)C(=O)O1"
  system-under-test: "Staphylococcus aureus"
  value: 0.19
- smiles-string: "CC(=O)NC[C@H]1CN(c2ccc(N3CCN(Cc4cc(-c5ccc(C)cc5)no4)CC3)c(F)c2)C(=O)O1"
  system-under-test: "Staphylococcus aureus"
  value: 1.10
- smiles-string: "CC(=O)NC[C@H]1CN(c2ccc(N3CCN(Cc4cc(/C=C/c5ccccc5)no4)CC3)c(F)c2)C(=O)O1"
  system-under-test: "Staphylococcus aureus"
  value: 1.40
- smiles-string: "COc1ccc(-c2cc(CN3CCN(c4ccc(N5C[C@H](CNC(C)=O)OC5=O)cc4F)CC3)on2)cc1OC"
  system-under-test: "Staphylococcus aureus"
  value: 0.49

---

- System: Staphylococcus aureus
- protocol-description: In vitro antibacterial activity against the methicillin-resistant Staphylococcus aureus 88
- Format: functional
Below, each entry is listed alongside its reported MIC.

- smiles-string: "CC(=O)NC[C@H]1CN(c2ccc(N3CCN(C(=O)c4cc(C)no4)CC3)c(F)c2)C(=O)O1"
  system-under-test: "Staphylococcus aureus"
  MIC, µg/mL: 1.56
- smiles-string: "COc1cc(CN2CCN(c3ccc(N4C[C@H](CNC(C)=O)OC4=O)cc3F)CC2)on1"
  system-under-test: "Staphylococcus aureus"
  MIC, µg/mL: 3.12
- smiles-string: "CC(=O)NC[C@H]1CN(c2ccc(N3CCN(C(=O)c4cc(-c5nccs5)no4)CC3)c(F)c2)C(=O)O1"
  system-under-test: "Staphylococcus aureus"
  MIC, µg/mL: 0.39
- smiles-string: "CC(=O)NC[C@H]1CN(c2ccc(N3CCN(C(=O)CO)CC3)c(F)c2)C(=O)O1"
  system-under-test: "Staphylococcus aureus"
  MIC, µg/mL: 1.56

---

- System: Staphylococcus aureus
- protocol-description: In vitro antibacterial activity against the methicillin-resistant Staphylococcus aureus 88
- Type: functional
Below, each entry is listed alongside its reported MIC.

- compound: "CC(=O)NC[C@H]1CN(c2ccc(N3CCOCC3)c(F)c2)C(=O)O1 [LINEZOLID]"
  system-under-test: "Staphylococcus aureus"
  MIC, µg/mL: 1.56
- compound: "CC(=O)NC[C@H]1CN(c2ccc(N3CCN(C(=O)c4cc(OCCF)no4)CC3)c(F)c2)C(=O)O1"
  system-under-test: "Staphylococcus aureus"
  MIC, µg/mL: 1.56
- compound: "CC(=O)NC[C@H]1CN(c2ccc(N3CCN(C(=O)c4cc(Cl)no4)CC3)c(F)c2)C(=O)O1"
  system-under-test: "Staphylococcus aureus"
  MIC, µg/mL: 0.78
- compound: "CC(=O)NC[C@H]1CN(c2ccc(N3CCN(C(=O)c4cc(C(F)(F)F)no4)CC3)c(F)c2)C(=O)O1"
  system-under-test: "Staphylococcus aureus"
  MIC, µg/mL: 3.12
- compound: "CC(=O)NC[C@H]1CN(c2ccc(N3CCN(C(=O)c4cc(COC(N)=O)no4)CC3)c(F)c2)C(=O)O1"
  system-under-test: "Staphylococcus aureus"
  MIC, µg/mL: 1.56
- compound: "CC(=O)NC[C@H]1CN(c2ccc(N3CCN(C(=O)c4cc(-c5cccs5)no4)CC3)c(F)c2)C(=O)O1"
  system-under-test: "Staphylococcus aureus"
  MIC, µg/mL: 0.78
- compound: "CC(=O)NC[C@H]1CN(c2ccc(N3CCN(C(=O)c4cc(C(=O)O)no4)CC3)c(F)c2)C(=O)O1"
  system-under-test: "Staphylococcus aureus"
  MIC, µg/mL: 100
- compound: "CC(=O)NC[C@H]1CN(c2ccc(N3CCN(C(=O)c4cc(Br)no4)CC3)c(F)c2)C(=O)O1"
  system-under-test: "Staphylococcus aureus"
  MIC, µg/mL: 0.78
